Numbers sourced from patent US20250263489A1.

- Experimental Target: IGF-1 receptor on the cells of the PathHunter IGF1R Functional Assay (DiscoverX) (UniProt P08069 31-1367)
- Sequence (P08069 31-1367): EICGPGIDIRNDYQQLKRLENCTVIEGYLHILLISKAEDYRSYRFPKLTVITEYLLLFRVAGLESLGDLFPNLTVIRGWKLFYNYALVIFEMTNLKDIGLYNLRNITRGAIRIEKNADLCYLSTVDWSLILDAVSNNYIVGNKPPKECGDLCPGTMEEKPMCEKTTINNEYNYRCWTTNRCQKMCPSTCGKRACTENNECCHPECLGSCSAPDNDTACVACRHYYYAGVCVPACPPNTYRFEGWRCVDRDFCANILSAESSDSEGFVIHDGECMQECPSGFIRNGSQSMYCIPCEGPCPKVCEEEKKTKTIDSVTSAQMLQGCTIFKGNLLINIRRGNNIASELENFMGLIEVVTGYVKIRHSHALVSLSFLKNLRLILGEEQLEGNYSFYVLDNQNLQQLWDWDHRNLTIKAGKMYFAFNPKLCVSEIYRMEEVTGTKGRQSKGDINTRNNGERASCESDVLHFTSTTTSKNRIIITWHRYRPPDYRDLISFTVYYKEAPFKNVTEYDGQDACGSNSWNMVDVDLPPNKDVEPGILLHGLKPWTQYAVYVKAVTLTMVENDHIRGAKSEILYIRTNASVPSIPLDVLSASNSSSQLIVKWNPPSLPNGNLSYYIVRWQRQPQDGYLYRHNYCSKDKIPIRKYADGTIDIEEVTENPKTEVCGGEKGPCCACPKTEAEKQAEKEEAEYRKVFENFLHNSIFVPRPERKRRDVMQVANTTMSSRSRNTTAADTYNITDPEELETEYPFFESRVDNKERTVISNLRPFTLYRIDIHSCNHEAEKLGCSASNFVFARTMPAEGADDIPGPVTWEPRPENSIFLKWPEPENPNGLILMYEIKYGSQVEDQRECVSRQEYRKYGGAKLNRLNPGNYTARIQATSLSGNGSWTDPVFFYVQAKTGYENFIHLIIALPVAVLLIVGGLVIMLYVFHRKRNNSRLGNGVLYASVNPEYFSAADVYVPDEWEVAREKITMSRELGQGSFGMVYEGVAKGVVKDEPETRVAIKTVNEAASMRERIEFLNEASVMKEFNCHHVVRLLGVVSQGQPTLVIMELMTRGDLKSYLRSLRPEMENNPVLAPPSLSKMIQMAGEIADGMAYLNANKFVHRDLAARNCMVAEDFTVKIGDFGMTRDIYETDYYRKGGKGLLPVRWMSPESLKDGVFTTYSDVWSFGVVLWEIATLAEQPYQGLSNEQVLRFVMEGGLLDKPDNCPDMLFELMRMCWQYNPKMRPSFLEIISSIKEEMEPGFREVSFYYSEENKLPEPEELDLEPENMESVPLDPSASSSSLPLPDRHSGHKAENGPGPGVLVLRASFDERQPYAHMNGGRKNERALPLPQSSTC
- Protocol Notes: cell-based or functional assay
Reported Property: Fluorescence intensity (12.5 nM) (RLU), PathHunter

Binder | Endpoint Value
mouse parent antibody IGF11-16 (antibody, mouse IgG1, kappa, V domains shown) VH: QIQLQQPGAELVKPGASVKLSCKAPGYTFTSYWMHWVKQRPGQGLEWIGETNPSNSVTNYNEKFKSKATLTVDKSSSTAYMQLSSLTSEDSAVYYCTIGRGRGFAYWGQGTLVTVSA VL: DIQMNQSPSSLSASLGDTITITCRASQNINFWLSWCQQKPGNIPKLLIYKASNLHTGVPSRFSGSGSGTDFTLTISSLQPEDIATYYCLQGQSYPYTFGGGTKLEIKR | 3800
FW1_var14_NEKS (antibody, human IgG4, V domains shown) VH: QVQLVQSGAEVKKPGASVKVSCKASGYTFTSYWMHWVRQAPGQGLEWMGETNPSNSVTNYNEKFKSRVTLTVDTSTSTAYMELSSLRSEDTATYYCTIGRGRGFAYWGQGTLVTVSS VL: DIQMTQSPSSVSASVGDRVTITCRASQNINFWLSWYQQKPGKAPRLLIYKASNLHTGVPSRFSGSGSGTDFTLTISSLQPEDFATYYCLQGQSYPYTFGGGTKLEIK | 1960
FW1_var1 antibody (antibody, V domains shown) VH: QVQLVQSGAEVKKPGASVKVSCKASGYTFTSYWMHWVRQAPGQGLEWMGETNPSNSVTNYAQKFQGRVTLTVDTSTSTAYMELSSLRSEDTAVYYCTIGRGRGFAYWGQGTLVTVSS VL: DIQMTQSPSSVSASVGDRVTITCRASQNINFWLSWCQQKPGKIPKLLIYKASNLHTGVPSRFSGSGSGTDFTLTISSLQPEDFATYYCLQGQSYPYTFGGGTKLEIK | 2480
FW1_var10_NEKS (antibody, human IgG4, V domains shown) VH: QVQLVQSGAEVKKPGASVKVSCKASGYTFTSYWMHWVRQAPGQGLEWMGETNPSNSVTNYNEKFKSRVTLTVDTSTSTAYMELSSLRSEDTATYYCTIGRGRGFAYWGQGTLVTVSS VL: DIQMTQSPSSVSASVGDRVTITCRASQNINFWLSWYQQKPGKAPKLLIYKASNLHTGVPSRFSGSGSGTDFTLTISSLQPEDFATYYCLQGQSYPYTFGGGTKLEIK | 2190
